- Tested on: Micrococcus luteus
- procedure summary: Antimicrobial activity against Micrococcus luteus CMCC(B) 28001 after 24 hrs by two fold dilution method
- Type: functional
readout kind: MBC (µg/mL)

| compound smiles | units text | quantitative result |
| --- | --- | --- |
| CC1(C)S[C@@H]2[C@H](NC(=O)[C@H](N)c3ccccc3)C(=O)N2[C@H]1C(=O)O | µg/mL | 0.5 |
| O=C(N[C@H](CO)[C@H](O)c1ccc([N+](=O)[O-])cc1)C(Cl)Cl | µg/mL | 4 |
| COC(=O)[C@H](Cc1c[nH]c2ccccc12)NC(=O)c1ccccn1 | µg/mL | 8 |
| NC[C@H]1O[C@H](O[C@H]2[C@H](O)[C@@H](O[C@H]3O[C@H](CO)[C@@H](O)[C@H](N)[C@H]3O)[C@H](N)C[C@@H]2N)[C@H](O)[C@@H](O)[C@@H]1O | µg/mL | 0.25 |

----------
- System: Bacillus subtilis
- procedure summary: Antimicrobial activity against Bacillus subtilis after 24 hrs by two fold dilution method
- Type: functional
readout kind: MIC (µg/mL)

| compound | readout kind | quantitative result |
| --- | --- | --- |
| NC[C@H]1O[C@H](O[C@H]2[C@H](O)[C@@H](O[C@H]3O[C@H](CO)[C@@H](O)[C@H](N)[C@H]3O)[C@H](N)C[C@@H]2N)[C@H](O)[C@@H](O)[C@@H]1O [KANAMYCIN] | MIC | 4 |
| O=C(N[C@H](CO)[C@H](O)c1ccc([N+](=O)[O-])cc1)C(Cl)Cl [CHLORAMPHENICOL] | MIC | 2 |
| COC(=O)[C@H](Cc1c[nH]c2ccccc12)NC(=O)c1ccccn1 | MIC | 4 |
| CC1(C)S[C@@H]2[C@H](NC(=O)[C@H](N)c3ccccc3)C(=O)N2[C@H]1C(=O)O [AMPICILLIN] | MIC | 0.3 |
| COC(=O)[C@H](Cc1c[nH]c2ccccc12)NC(=O)c1cccc(C(=O)N[C@@H](Cc2c[nH]c3ccccc23)C(=O)OC)n1 | MIC | 32 |

----------
MIC listing for selected compounds.
- Test system: Candida albicans
- procedure summary: Antifungal activity against Candida albicans CMAH 0527 after 48 to 72 hrs by broth microdilution method
- Type: functional

| compound | test system | MIC / µg/mL |
| --- | --- | --- |
| COC(=O)[C@H](Cc1c[nH]c2ccccc12)NC(=O)c1ccccn1 | Candida albicans | 16 |
| COC(=O)[C@H](Cc1c[nH]c2ccccc12)NC(=O)c1cccc(C(=O)N[C@@H](Cc2c[nH]c3ccccc23)C(=O)OC)n1 | Candida albicans | 32 |
| C[C@@H]1[C@H](O)[C@@H](C)/C=C/C=C/C=C/C=C/C=C/C=C/C=C/[C@H](O[C@@H]2O[C@H](C)[C@@H](O)[C@H](N)[C@@H]2O)C[C@@H]2O[C@](O)(C[C@@H](O)C[C@@H](O)[C@H](O)CC[C@@H](O)C[C@@H](O)CC(=O)O[C@H]1C)C[C@H](O)[C@H]2C(=O)O [AMPHOTERICIN B] | Candida albicans | 0.5 |
| OC(Cn1cncn1)(Cn1cncn1)c1ccc(F)cc1F [FLUCONAZOLE] | Candida albicans | 64 |

----------
- Tested on: Staphylococcus aureus
- procedure summary: Antibacterial activity against methicillin-susceptible Staphylococcus aureus ATCC 25923 after 24 hrs by two fold dilution method
- Format: functional
- test parameters: ATCC 25923, 24 h
A collection of molecules and their measured MIC

| compound smiles | MIC, µg/mL |
| --- | --- |
| COC(=O)[C@H](Cc1c[nH]c2ccccc12)NC(=O)c1ccccn1 | 1 |
| O=C(N[C@H](CO)[C@H](O)c1ccc([N+](=O)[O-])cc1)C(Cl)Cl | 1 |
| CC1(C)S[C@@H]2[C@H](NC(=O)[C@H](N)c3ccccc3)C(=O)N2[C@H]1C(=O)O | 0.25 |
| COC(=O)[C@H](Cc1c[nH]c2ccccc12)NC(=O)c1cccc(C(=O)N[C@@H](Cc2c[nH]c3ccccc23)C(=O)OC)n1 | 64 |
| NC[C@H]1O[C@H](O[C@H]2[C@H](O)[C@@H](O[C@H]3O[C@H](CO)[C@@H](O)[C@H](N)[C@H]3O)[C@H](N)C[C@@H]2N)[C@H](O)[C@@H](O)[C@@H]1O | 0.25 |
